- target or system: human CB2 receptor (Homo sapiens)
- Sequence (P34972 whole entry): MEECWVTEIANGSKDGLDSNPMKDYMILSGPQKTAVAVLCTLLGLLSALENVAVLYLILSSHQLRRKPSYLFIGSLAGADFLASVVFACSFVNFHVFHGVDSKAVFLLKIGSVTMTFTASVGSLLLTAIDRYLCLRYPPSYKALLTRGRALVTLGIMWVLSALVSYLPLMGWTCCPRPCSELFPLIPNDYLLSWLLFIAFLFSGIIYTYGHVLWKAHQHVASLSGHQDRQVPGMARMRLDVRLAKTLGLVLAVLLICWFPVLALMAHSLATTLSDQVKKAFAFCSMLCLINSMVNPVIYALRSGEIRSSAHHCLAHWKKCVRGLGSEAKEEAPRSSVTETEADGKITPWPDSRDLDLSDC
- method description: Affinity to the cannabinoid receptor CB2, displacement of [3H]-CP 55,940
- applied conditions: 10 μM, membranes of HEK 293EBNA cells with human CB2 receptor
Consider the following molecules; for each one, report its Inhibition CB2 10 μM, % inhibition.
Output spec: scalar in %, unitless text.

Request: Inhibition CB2 10 μM, % inhibition, test system human CB2 receptor (Homo sapiens), entry CCc1ccc(S(=O)(=O)N2CCC3(CC2)NC(Cc2ccccc2)C(=O)N3Cc2ccccc2)cc1 (centres unmarked)
61

Next: Cc1cc(C)c(C)c(S(=O)(=O)N2CCC3(CC2)NC(Cc2ccccc2)C(=O)N3Cc2ccccc2)c1C (centres unmarked)
56

And what about the molecule COc1cc(C)c(S(=O)(=O)N2CCC3(CC2)NC(Cc2ccccc2)C(=O)N3Cc2ccccc2)c(C)c1C (centres unmarked) ?
57

Input CCCCOc1ccc(S(=O)(=O)N2CCC3(CC2)NC(Cc2ccccc2)C(=O)N3CC(=O)OCC)cc1 (centres unmarked)
46

Now try O=C1C(Cc2ccccc2)NC2(CCN(C(=S)Nc3c(Cl)cccc3Cl)CC2)N1Cc1ccccc1F (centres unmarked) .
84
